test: chemical genetic growth profiling, strain panel (AID 1159580);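 also: tested at 20 µM; growth read once vehicle control cultures reached saturation at 30 °C; 1 = growth at the plate median or of vehicle wells; lower values mean less growth of the strain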; conditions: S. cerevisiae deletion strains, growth OD, locus YOR083W, strain WHI5 (second series), active compounds read low
Among all 5,500 compounds or so, about 2,000 (36%) were called active. Inconclusive results (about 18%) are left out. The list shows a part of the results.
What normalized growth was measured for each of the following?

Look at this molecule and give its reported normalized growth. Clc1ccc(Cn2c(CN3CCCC3)nc3ccccc32)cc1
1.02 (inactive)

Look at this molecule and give its reported normalized growth. C[Se]C[C@H](N)C(=O)O
0.984 (inactive)

Look at this molecule and give its reported normalized growth. CCCN(CCC)C1CCc2cccc(O)c2C1 (configuration not stated)
1.01 (inactive)

Look at this molecule and give its reported normalized growth. O=C(C1CCCCC1)N1CC(=O)N2CCc3ccccc3C2C1 (configuration not stated)
1.01 (inactive)

Look at this molecule and give its reported normalized growth. NC(N)=NCCC[C@H](N)C(=O)O
0.975 (inactive)

Look at this molecule and give its reported normalized growth. CC1OC1P(=O)(O)O (configuration not stated)
0.997 (inactive)

Look at this molecule and give its reported normalized growth. CCCCC#Cc1nc(N)c2ncn([C@@H]3O[C@H](C(=O)NCC)[C@@H](O)[C@H]3O)c2n1
0.982 (inactive)

###

What normalized growth was measured for each of the following?
test: chemical genetic growth profiling, strain panel (AID 1159580);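 also: tested at 20 µM; growth read once vehicle control cultures reached saturation at 30 °C; 1 = growth at the plate median or of vehicle wells; lower values mean less growth of the strain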; details: S. cerevisiae deletion strains, growth OD, locus YOR231W, strain MKK1, active compounds read low
Out of some 5,500 compounds screened, about 2,000 (36%) were called active. Not shown: some 18% with an inconclusive outcome. The list shows a part of the results.
# output: bare number, no unit

Look at this compound and give its reported normalized growth. C#CCCCCCCCCCCCC(O)CC(O)COC(C)=O (stereo unspecified)
1.01

Look at this compound and give its reported normalized growth. CCOC(=O)[C@H](CCc1ccccc1)N[C@@H](C)C(=O)N1[C@H](C(=O)O)C[C@@H]2CCC[C@@H]21
0.983

Look at this compound and give its reported normalized growth. CO[C@@]1(NC(=O)CSCC#N)C(=O)N2C(C(=O)O)=C(CSc3nnnn3C)CSC21 (stereo partly specified)
0.976

Look at this compound and give its reported normalized growth. CCCCN1CCCCC1C(=O)Nc1c(C)cccc1C (stereo unspecified)
0.974

Look at this compound and give its reported normalized growth. O=c1cc[nH]c(=S)[nH]1
1.01

Look at this compound and give its reported normalized growth. CCOC(=O)c1ccc(O)cc1
1

###

test: chemical genetic growth profiling, strain panel (AID 1159580);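 also: tested at 20 µM; growth read once vehicle control cultures reached saturation at 30 °C; 1 = growth at the plate median or of vehicle wells; lower values mean less growth of the strain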; details: S. cerevisiae deletion strains, growth OD, locus YPR163C, strain tif3, active compounds read low
Hit rate of the full screen: of about 5,500 compounds, about 2,000 (36%) were called active. Another 18% or so got no clear call; they are omitted. The list shows a part of the results.
What normalized growth was measured for each of the following?
# output: bare number, no unit

Look at this compound and give its reported normalized growth. CCCCOC(=O)c1ccccc1C(=O)OCCCC
0.97

Look at this compound and give its reported normalized growth. COC(=O)C1=CCCN(C)C1
0.999

Look at this compound and give its reported normalized growth. CCCCN(CCCC)CCCOC(=O)c1ccc(N)cc1
0.973

Look at this compound and give its reported normalized growth. COc1cc2occ(-c3ccccc3)c(=O)c2c(OC)c1C
0.937

Look at this compound and give its reported normalized growth. Oc1ccc(Cl)cc1
0.983

Look at this compound and give its reported normalized growth. CC(=O)N[C@@H](CS)C(=O)O
1.03

Look at this compound and give its reported normalized growth. O=C1OC(c2ccc(O)cc2)(c2ccc(O)cc2)c2ccccc21
0.965

Look at this compound and give its reported normalized growth. Cc1cc(NC(=O)C2=C(O)c3ccccc3S(=O)(=O)N2C)no1
0.931

Look at this compound and give its reported normalized growth. CCCCNc1ccc(C(=O)OCCN(C)C)cc1
1.02

Look at this compound and give its reported normalized growth. O=S1OCC2C(CO1)C1(Cl)C(Cl)=C(Cl)C2(Cl)C1(Cl)Cl (stereo unspecified)
0.978

Look at this compound and give its reported normalized growth. COc1cc(-c2coc3cc(OC)c(OC)c(OC)c3c2=O)cc(OC)c1OC
1

Look at this compound and give its reported normalized growth. CCCCOC(=O)c1ccc(N)cc1
0.946

Look at this compound and give its reported normalized growth. O=c1cc[nH]c(=S)[nH]1
1.02

Look at this compound and give its reported normalized growth. CCCCCCOc1ccccc1C(N)=O
0.142

Look at this compound and give its reported normalized growth. CN1C(C(=O)Nc2ccccn2)=C(O)c2ccccc2S1(=O)=O
0.885

Look at this compound and give its reported normalized growth. C=CCSCC1Nc2cc(Cl)c(S(N)(=O)=O)cc2S(=O)(=O)N1 (stereo unspecified)
1.02

Look at this compound and give its reported normalized growth. CCCC(=O)O[C@]1(C(=O)CO)CCC2[C@@H]3CCC4=CC(=O)CC[C@]4(C)C3[C@@H](O)C[C@@]21C (stereo partly specified)
1.01

Look at this compound and give its reported normalized growth. Cc1cccc(C(=O)O)c1O
1.02

Look at this compound and give its reported normalized growth. CC(C)[C@@H]1CC[C@@H](C)C[C@H]1O
1.02

Look at this compound and give its reported normalized growth. Cc1cccc(Nc2ccccc2C(=O)O)c1C
0.893

Look at this compound and give its reported normalized growth. O=C1NC(=O)C(=O)C(=O)N1
0.987

Look at this compound and give its reported normalized growth. CC(C)COCC(CN(Cc1ccccc1)c1ccccc1)N1CCCC1 (stereo unspecified)
0.792

Look at this compound and give its reported normalized growth. Cc1ccc(Cl)c(Nc2ccccc2C(=O)O)c1Cl
0.903

Look at this compound and give its reported normalized growth. CO[C@@]1(NC(=O)CSCC#N)C(=O)N2C(C(=O)O)=C(CSc3nnnn3C)CSC21 (stereo partly specified)
1.03

Look at this compound and give its reported normalized growth. COc1cc(-c2coc3cc(OCc4ccccc4)c(OC)c(O)c3c2=O)cc(O)c1OC
0.837

Look at this compound and give its reported normalized growth. Oc1ccc(Cl)cc1Cc1cc(Cl)ccc1O
0.07

###

assay: chemical genetic growth profiling, strain panel (AID 1159580);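 also: tested at 20 µM; growth read once vehicle control cultures reached saturation at 30 °C; 1 = growth at the plate median or of vehicle wells; lower values mean less growth of the strain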; conditions: S. cerevisiae deletion strains, growth OD, locus YGL240W, strain doc1
The campaign covered roughly 5,500 compounds. About 2,000 (36%) were called active. Another 18% or so got no clear call; they are omitted. Rule as the data show it: active = normalized growth mostly below about 0.91 (no sharp cut-off); inconclusive = no clear call, values can overlap the other calls; inactive = mostly above about 0.92. This is one part of the list.
Respond using exactly one of the listed classes: TRUE = active, FALSE = inactive

Assay outcome for CO/N=C(\C(=O)N[C@@H]1C(=O)N2C(C(=O)O)=C(CSc3nc(=O)c(O)nn3C)CS[C@H]12)c1csc(N)n1 : what was it?
FALSE

Assay outcome for OCc1ccccc1O : what was it?
FALSE

Assay outcome for O=C1C=C2C=C[C@@H]3C[C@@]2(O1)[C@H]1CCCCN31 : what was it?
FALSE

Assay outcome for C#CCCCCCCCCCCCC(O)CC(O)COC(C)=O (stereo not drawn) : what was it?
TRUE

Assay outcome for Nc1nc2ncc(=O)[nH]c2c(=O)[nH]1 : what was it?
FALSE

Assay outcome for O=C(O)CN1C(=O)c2cccc3cccc(c23)C1=O : what was it?
FALSE

Assay outcome for COc1cc(OC)c2c(=O)c(-c3ccccc3)coc2c1 : what was it?
TRUE

Assay outcome for CC1OC1P(=O)(O)O (stereo not drawn) : what was it?
FALSE

Assay outcome for Oc1ccc(Cl)cc1Cc1cc(Cl)ccc1O : what was it?
TRUE

Assay outcome for CCCCC(=O)Oc1ccccc1C(=O)O : what was it?
FALSE

Assay outcome for CCN(CC)CCOC(=O)c1ccc(N)cc1 : what was it?
FALSE

Assay outcome for COC(=O)[C@@H]1OC(=O)[C@H]2O[C@@]23[C@@]1(C)CCC1[C@@]2(C)CCC(=O)C(C)(C)C2C[C@@H](OC(C)=O)[C@]13C (stereo partly drawn) : what was it?
FALSE

Assay outcome for NC(=O)c1cccc(N)c1 : what was it?
FALSE

Assay outcome for Clc1cccc(Cl)c1NC1=NCCN1 : what was it?
FALSE

Assay outcome for COC(=O)C(O)c1ccccc1 (stereo not drawn) : what was it?
FALSE

Assay outcome for Cc1cc(NC(=O)C2=C(O)c3ccccc3S(=O)(=O)N2C)no1 : what was it?
FALSE

Assay outcome for C[C@@H]1C(=O)OC2[C@H](O)C34[C@@H]5OC(=O)[C@@]3(O[C@@H]3OC(=O)[C@H](O)[C@@]34[C@H](C(C)(C)C)[C@H]5O)[C@]21O (stereo partly drawn) : what was it?
FALSE

Assay outcome for CC(C)NNC(=O)c1ccncc1 : what was it?
FALSE

Assay outcome for CCCCN(CCCC)CCCOC(=O)c1ccc(N)cc1 : what was it?
FALSE

Assay outcome for CCC(C)C(=O)O[C@H]1C[C@H](O)C=C2C=C[C@H](C)[C@H](CC[C@@H](O)C[C@@H](O)CC(=O)O)C21 (stereo partly drawn) : what was it?
FALSE

Assay outcome for COc1cc2c(cc1OC)C1Cc3ccc(OC)c(OC)c3CN1CC2 (stereo not drawn) : what was it?
FALSE

Assay outcome for NC(CO)C(=O)NNCc1ccc(O)c(O)c1O (stereo not drawn) : what was it?
FALSE

Assay outcome for COc1c2ccoc2c(OC)c2oc(=O)ccc12 : what was it?
FALSE

Assay outcome for CCCC(=O)O[C@]1(C(=O)CO)CCC2[C@@H]3CCC4=CC(=O)CC[C@]4(C)C3[C@@H](O)C[C@@]21C (stereo partly drawn) : what was it?
FALSE

Assay outcome for NC(N)=NS(=O)(=O)c1ccc(N)cc1 : what was it?
FALSE

Assay outcome for O=C1CC2OCC=C3CN4CC[C@]56c7ccccc7N1C5[C@H]2[C@H]3CC46 (stereo partly drawn) : what was it?
FALSE

Assay outcome for CCCCNc1ccc(C(=O)OCCN(C)C)cc1 : what was it?
FALSE

Assay outcome for CCCCOC(=O)c1ccc(N)cc1 : what was it?
TRUE

Assay outcome for NS(=O)(=O)c1cc2c(cc1Cl)NC(C(Cl)Cl)NS2(=O)=O (stereo not drawn) : what was it?
FALSE

Assay outcome for C=CCSCC1Nc2cc(Cl)c(S(N)(=O)=O)cc2S(=O)(=O)N1 (stereo not drawn) : what was it?
FALSE

Assay outcome for COc1cc([C@@H]2c3cc4c(c(O)c3C[C@H]3COC(=O)[C@@H]32)OCO4)cc(OC)c1OC : what was it?
FALSE

Assay outcome for CO/N=C(\C(=O)N[C@@H]1C(=O)N2C(C(=O)O)=C(COC(C)=O)CS[C@H]12)c1csc(N)n1 : what was it?
FALSE

Assay outcome for CCCOc1ccc(C(=O)OCCN(CC)CC)cc1N : what was it?
FALSE

Assay outcome for CCC(C)(C)C(=O)O[C@H]1C[C@@H](C)C=C2C=C[C@H](C)[C@H](CC[C@@H]3C[C@@H](O)CC(=O)O3)[C@H]21 : what was it?
FALSE

Assay outcome for CCCCCCOc1ccccc1C(N)=O : what was it?
TRUE

Assay outcome for CC(=O)OCC[C@H](C)CCC=C(C)C : what was it?
FALSE

Assay outcome for CC(=O)OCC(OC(C)=O)C(OC(C)=O)C(OC(C)=O)C(OC(C)=O)C(COC(C)=O)OC(C)=O (stereo not drawn) : what was it?
FALSE

Assay outcome for COc1ccc2c(c1OC)C(=O)OC2[C@H]1c2c(cc3c(c2OC)OCO3)CCN1C (stereo partly drawn) : what was it?
FALSE

Assay outcome for Cc1ccc(C)c(OCCCC(C)(C)C(=O)O)c1 : what was it?
FALSE

Assay outcome for COc1cc(-c2coc3cc(OC)c(OC)c(OC)c3c2=O)cc(OC)c1OC : what was it?
FALSE

Assay outcome for CCNC(=O)CC[C@H](N)C(=O)O : what was it?
FALSE

Assay outcome for CC(C)(C)CC(C)(C)c1ccc(O)c(Cc2ccc(Cl)cc2Cl)c1 : what was it?
FALSE

Assay outcome for CCCCCCCCCCCCCCCC(=O)OC1C(SC)OC(C(NC(=O)C2CC(CCC)CN2C)C(C)Cl)C(O)C1O (stereo not drawn) : what was it?
FALSE
